# maps each entry to its Cell kill IC50, HekNectin4
Biological target: T1, human nectin-4 protein expressed on the surface of cells (human, UniProt Q96NY8 32-510)
T1 sequence: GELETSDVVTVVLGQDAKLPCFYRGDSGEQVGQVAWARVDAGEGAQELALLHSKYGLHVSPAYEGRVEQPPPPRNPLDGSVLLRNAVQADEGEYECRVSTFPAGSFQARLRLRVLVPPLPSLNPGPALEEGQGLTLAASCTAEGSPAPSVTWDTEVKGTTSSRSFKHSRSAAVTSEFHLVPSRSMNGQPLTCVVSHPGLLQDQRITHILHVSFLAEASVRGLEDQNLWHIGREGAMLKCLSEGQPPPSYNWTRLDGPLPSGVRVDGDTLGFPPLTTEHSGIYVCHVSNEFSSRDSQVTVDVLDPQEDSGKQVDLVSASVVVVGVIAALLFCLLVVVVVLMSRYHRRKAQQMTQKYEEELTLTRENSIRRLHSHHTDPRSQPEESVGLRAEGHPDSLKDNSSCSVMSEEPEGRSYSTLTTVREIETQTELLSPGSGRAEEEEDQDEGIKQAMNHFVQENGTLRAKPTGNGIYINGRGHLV
Assay: cell-based or functional assay

Nectin-4 5D9 VH4/VL4 (antibody, V domains shown, Humanized; also called 5D9 VH variant 4 / 5D9 VL variant 4) VH: QVQLQQSGPGLVKPSETLSLTCTVSGFSLTNYGVHWVRQPPGKGLEWLGVIWSGGSTDYNPSLKSRLTISRDTSKNQVSFKMSSVTAADTAVYYCARSGKWYYFDYWGQGTLVTVSS VL: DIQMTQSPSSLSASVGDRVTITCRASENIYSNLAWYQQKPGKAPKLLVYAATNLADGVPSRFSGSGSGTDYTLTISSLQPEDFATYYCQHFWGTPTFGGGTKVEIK : 0.102 nM

// field: Cell kill IC50, HekNectin4; key: Nectin-4 5D9 VH2/VL3 (antibody, V domains shown, Humanized; also called 5D9 VH variant 2 / 5D9 VL variant 3) VH: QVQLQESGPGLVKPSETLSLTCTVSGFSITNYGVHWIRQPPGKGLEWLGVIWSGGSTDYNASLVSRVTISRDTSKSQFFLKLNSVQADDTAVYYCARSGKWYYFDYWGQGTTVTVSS VL: DIQMTQSPSSLSASVGDRVTITCRASQSIYSNLAWYQQKPGKAPKLLVYAATNLASGVPSRFSGSGSGTDFTLTISSLQPEDFATYYCQHFWGTPTFGGGTKVEIK ; value = 33.7 nM

// field: Cell kill IC50, HekNectin4; key: Nectin-4 5D9 VH5/VL1 (antibody, V domains shown, Humanized; also called 5D9 VH variant 5 / 5D9 VL variant 1) VH: QVQLQESGPGLVKPSETLSLTCTVSGGSLTNYGVHWVRQPPGKGLEWIGVIWSGGSTNYNPSLKSRVTISRDTSKNQVSLKLSSVTAADTAVYYCARSGKWYYFDYWGQGTLVTVSS VL: DIQMTQSPASLSASVGDTVTITCRASQNIYSNLAWYQQKQGKSPQLLVYAATNLADGVPSRFSGSGSGTQYTLKINSLQSEDFGTYYCQHFWGTPTFGGGTKVEIK ; value = 30.3 nM

Values were extracted from patent US20250101098A1.
